- protocol notes: MTT cytotoxicity assay, A549
- Format: cell-based
- conditions: human, A549 lung cells, read-out: Cytotoxic IC50 A549
measured quantity: IC50 at 48 h (nM)
Answer in nM, number only, no unit symbol.

Sample CC(=O)OC[C@H]1O[C@@H](SC2=NC(=O)CS2)[C@H](OC(C)=O)[C@@H](OC(C)=O)[C@@H]1OC(C)=O [Compound 7] — what was its IC50 at 48 h?
310

====

- protocol notes: MTT cytotoxicity assay, HepG2
- Assay type: cell-based
- conditions: human, HepG2 liver cells, read-out: Cytotoxic IC50 HepG2
measured quantity: IC50 at 48 h (nM)
I only need the number, in nM, no unit after it.

Sample CC(=O)OC[C@H]1O[C@@H](SC2=NC(=O)CS2)[C@H](OC(C)=O)[C@@H](OC(C)=O)[C@@H]1OC(C)=O [Compound 7] — what was its IC50 at 48 h?
760
